# experiment_description: Cytotoxicity against human HeLa cells assessed as cell viability at 3.125 to 100 uM incubated for 24 hrs by MTT assay
# Assay type: toxicity, cell-based
value_kind: IC50 at 24 h

Sample answers from the record:
CCCC[C@H](CN(O)C=O)C(=O)N1CCC[C@H]1c1nnc(-c2ccc(-c3ccccn3)cc2)s1    89 µM
CC(=O)NC[C@H]1CN(c2ccc(N3CCOCC3)c(F)c2)C(=O)O1 [LINEZOLID]    > 100 µM

The reported value for CCCC[C@H](CN(O)C=O)C(=O)N1CCC[C@H]1c1nnc(-c2ccc(Cl)s2)s1 in terms of IC50 at 24 h is > 100 µM

The reported value for CCCC[C@H](CN(O)C=O)C(=O)N1CCC[C@H]1C(=O)Nc1ccc(F)c[n+]1[O-] in terms of IC50 at 24 h is > 100 µM

The reported value for CCCC[C@H](CN(O)C=O)C(=O)N1CCC[C@H]1c1nnc(-c2cccs2)s1 in terms of IC50 at 24 h is > 100 µM

The reported value for CCCC[C@H](CN(O)C=O)C(=O)N1CCC[C@H]1c1nnc(-c2ccc([N+](=O)[O-])cc2F)s1 in terms of IC50 at 24 h is 91.7 µM

---

# System: Staphylococcus aureus
# experiment_description: Antibacterial activity against methicillin-resistant Staphylococcus aureus ATCC 33591 after 16 to 18 hrs by broth microdilution method
# Assay type: functional
# test_settings: time 16-18 hrs
value_kind: MIC (mg/L)
Give a bare numeral; the unit mg/L is implied.

Sample answers from the record:
CCCC[C@H](CN(O)C=O)C(=O)N1CCC[C@H]1c1nnc(-c2cc(OC)c(OC)c(OC)c2)s1    0.25
CCCC[C@H](CN(O)C=O)C(=O)N1CCC[C@H]1c1nnc(-c2ccc(F)cc2C(F)(F)F)s1    0.5
CCCC[C@H](CN(O)C=O)C(=O)N1CCC[C@H]1c1nnc(-c2ccc(-c3ccccn3)cc2)s1    0.125

Now examine the next entry.
The reported value for CCCC[C@H](CN(O)C=O)C(=O)N1CCC[C@H]1c1nnc(-c2ccc[nH]2)s1 in terms of MIC is 0.25

---

# experiment_description: Aqueous solubility of compound at 0.9% aqueous NaCl solution incubated for 2 hrs by UV spectrophotometry analysis
# Assay type: physicochemical
value_kind: solubility at 2 h (µg/mL)
Give a bare numeral; the unit µg/mL is implied.

CCCC[C@H](CN(O)C=O)C(=O)N1CCC[C@H]1c1nnc(-c2ccc([N+](=O)[O-])cc2F)s1    2020
CCCC[C@H](CN(O)C=O)C(=O)N1CCC[C@H]1c1nnc(-c2cccs2)s1    2600

The reported value for CCCC[C@H](CN(O)C=O)C(=O)N1CCC[C@H]1C(=O)Nc1ccc(F)c[n+]1[O-] in terms of solubility at 2 h is 1650

---

# System: Staphylococcus aureus
# experiment_description: Antibacterial activity against methicillin-susceptible Staphylococcus aureus ATCC 25923 after 16 to 18 hrs by broth microdilution method
# Assay type: functional
# test_settings: time 16-18 hrs
Below, each entry is listed with its recorded MIC.
Give a bare numeral; the unit µg/mL is implied.

CCCC[C@H](CN(O)C=O)C(=O)N1CCC[C@H]1c1nnc(-c2ccc(F)cc2C(F)(F)F)s1    2
CCCC[C@H](CN(O)C=O)C(=O)N1CCC[C@H]1c1nnc(Cc2cccs2)s1    2
CCCC[C@H](CN(O)C=O)C(=O)N1CCC[C@H]1c1nnc(-c2ccc(OC)c(OC)c2)s1    1
CCCC[C@H](CN(O)C=O)C(=O)N1CCC[C@H]1c1nnc(C2CC2)s1    2
CCCC[C@H](CN(O)C=O)C(=O)N1CCC[C@H]1c1nnc(C2CCCC2)s1    1
CCCC[C@H](CN(O)C=O)C(=O)N1CCC[C@H]1c1nnc(-c2ccc(C#N)cc2F)s1    0.125
CCCC[C@H](CN(O)C=O)C(=O)N1CCC[C@H]1c1nnc(-c2ccccc2)s1    4
CCCC[C@H](CN(O)C=O)C(=O)N1CCC[C@H]1c1nnc(-c2ccco2)s1    4
CCCC[C@H](CN(O)C=O)C(=O)N1CCC[C@H]1c1nnc(-c2ccc(Br)cc2)s1    0.5

Now examine the next entry.
The molecule CCCC[C@H](CN(O)C=O)C(=O)N1CCC[C@H]1c1nnc(-c2ccns2)s1 , when measured on Staphylococcus aureus, yielded MIC of 1

---

# Test system: Klebsiella pneumoniae
# experiment_description: Antibacterial activity against Klebsiella pneumoniae CICC 21611 after 16 to 18 hrs by broth microdilution method
# Assay type: functional
# test_settings: time 16-18 hrs
Below, each entry is listed with its recorded MIC.
Give a bare numeral; the unit µg/mL is implied.

Sample answers from the record:
CCCC[C@H](CN(O)C=O)C(=O)N1CCC[C@H]1c1nnc(-c2ccnc(C(F)(F)F)c2)s1    64
CCCC[C@H](CN(O)C=O)C(=O)N1CCC[C@H]1c1nnc(-c2ccccn2)s1    32
CCCC[C@H](CN(O)C=O)C(=O)N1CCC[C@H]1C(=O)Nc1ccc(F)c[n+]1[O-]    64
CCCC[C@H](CN(O)C=O)C(=O)N1CCC[C@H]1c1nnc(-c2ccc(C)s2)s1    32

Now examine the next entry.
The molecule CCCC[C@H](CN(O)C=O)C(=O)N1CCC[C@H]1c1nnc(-c2ccc([N+](=O)[O-])cc2F)s1 , when measured on Klebsiella pneumoniae, yielded MIC of 16

---

# System: Staphylococcus aureus
# experiment_description: Antibacterial activity against methicillin-susceptible Staphylococcus aureus ATCC 25923 after 16 to 18 hrs by broth microdilution method
# Format: functional
# test_settings: time 16-18 hrs
Below, each entry is listed with its recorded MIC.
Give a bare numeral; the unit µg/mL is implied.

CCCC[C@H](CN(O)C=O)C(=O)N1CCC[C@H]1c1nnc(-c2ccccn2)s1    0.5

The reported value for CCCC[C@H](CN(O)C=O)C(=O)N1CCC[C@H]1c1nnc(-c2ccccc2F)s1 in terms of MIC is 0.5

---

# Tested on: Staphylococcus aureus
# experiment_description: Antibacterial activity against methicillin-susceptible Staphylococcus aureus ATCC 25923 after 16 to 18 hrs by broth microdilution method
# Type: functional
# test_settings: time 16-18 hrs
// boundary case: MIC equal to 2 µg/mL maps to False; strictly smaller maps to True

Is the reported MIC for O=C(O)c1cn(C2CC2)c2cc(N3CCNCC3)c(F)cc2c1=O strictly below 2 µg/mL?
False

Is the reported MIC for CCCC[C@H](CN(O)C=O)C(=O)N1CCC[C@H]1c1nnc(-c2cccs2)s1 strictly below 2 µg/mL?
True

---

# Test system: Staphylococcus aureus
# experiment_description: Antibacterial activity against methicillin-susceptible Staphylococcus aureus ATCC 25923 after 16 to 18 hrs by broth microdilution method
# Type: functional
# test_settings: time 16-18 hrs
// boundary case: MIC equal to 1 µg/mL maps to false; strictly smaller maps to true

Please review the following examples before continuing.
CCCC[C@H](CN(O)C=O)C(=O)N1CCC[C@H]1c1nnc(-c2ccc(-c3ccccc3)cc2)s1    false
CCCC[C@H](CN(O)C=O)C(=O)N1CCC[C@H]1c1nnc(C2CCOC2)s1 (stereo partly drawn)    false
CCCC[C@H](CN(O)C=O)C(=O)N1CCC[C@H]1c1nnc(-c2ccc(F)cc2)s1    false
CCCC[C@H](CN(O)C=O)C(=O)N1CCC[C@H]1c1nnc(-c2sccc2F)s1    true
CCCC[C@H](CN(O)C=O)C(=O)N1CCC[C@H]1c1nnc(-c2cccc3ccccc23)s1    false

# evaluate next
Is the reported MIC for CCCC[C@H](CN(O)C=O)C(=O)N1CCC[C@H]1c1nnc(-c2ccc([N+](=O)[O-])cc2F)s1 strictly below 1 µg/mL?
true
